# procedure-details: Measurement of logP values by HPLC on reversed phase columns (EEC directive 79/831 Annex V.A8)
# Format: physicochemical
# condition-label: pH 2.7, 0.1% formic acid in water / acetonitrile gradient 10% to 95%
Note to self: use Condition met only for logp readings below 4; a reading exactly at 4 still gets Condition not met.

Lab note: confirm whether the reported logp for this compound is below 4, equality not counting. compound: Cc1ccc(C(=NOCc2cccc(NC(=O)CC(C)C)n2)c2nnnn2C)cc1C(F)(F)F [Example 69]
Condition not met

Lab note: confirm whether the reported logp for this compound is below 4, equality not counting. compound: CCCCCC(=O)Nc1cccc(CON=C(c2cc(F)cc(C(F)(F)F)c2)c2nnnn2C)n1 [Example 45]
Condition not met

Lab note: confirm whether the reported logp for this compound is below 4, equality not counting. compound: Cn1nnnc1C(=NOCc1cccc(N)n1)c1cc(F)cc(C(F)(F)F)c1 [Example 127]
Condition met

Lab note: confirm whether the reported logp for this compound is below 4, equality not counting. compound: Cc1ccc(C(=NOCc2cccc(NC(=O)CC(C)C)n2)c2nnnn2C)c(Cl)c1 [Example 40]
Condition met

Lab note: confirm whether the reported logp for this compound is below 4, equality not counting. compound: CCCCCC(=O)Nc1cccc(CON=C(c2ccc(OC(F)(F)F)cc2C)c2nnnn2C)n1 (single isomer, unassigned) [Example 108]
Condition not met

Lab note: confirm whether the reported logp for this compound is below 4, equality not counting. compound: CCCCCC(=O)Nc1cccc(CON=C(c2cc(C)cc(F)c2)c2nnnn2C)n1 [Example 123]
Condition not met

Lab note: confirm whether the reported logp for this compound is below 4, equality not counting. compound: Cc1ccc(Cl)c(C(=NOCc2cccc(NC(=O)CC(C)C)n2)c2nnnn2C)c1 [Example 62]
Condition met

Lab note: confirm whether the reported logp for this compound is below 4, equality not counting. compound: CCCCCOC(=O)Nc1cccc(CON=C(c2cccc(C(F)(F)F)c2Cl)c2nnnn2C)n1 [Example 87]
Condition not met

Lab note: confirm whether the reported logp for this compound is below 4, equality not counting. compound: Cc1ccc(C(F)(F)F)cc1C(=NOCc1cccc(N)n1)c1nnnn1C [Example 124]
Condition met

Lab note: confirm whether the reported logp for this compound is below 4, equality not counting. compound: CCCCCOC(=O)Nc1ccnc(CON=C(c2ccc(C)c(C(F)(F)F)c2)c2nnnn2C)n1 [Example 122]
Condition not met

Lab note: confirm whether the reported logp for this compound is below 4, equality not counting. compound: CCCCCOC(=O)Nc1cccc(CON=C(c2ccc(C)cc2Cl)c2nnnn2C)n1 [Example 92]
Condition not met

Lab note: confirm whether the reported logp for this compound is below 4, equality not counting. compound: CCCCCOC(=O)Nc1cccc(CON=C(c2ccc(Cl)c(C(F)(F)F)c2)c2nnnn2C)n1 [Example 88]
Condition not met

Lab note: confirm whether the reported logp for this compound is below 4, equality not counting. compound: CCCCCOC(=O)Nc1cccc(CON=C(c2ccc(C(F)(F)F)c(Cl)c2)c2nnnn2C)n1 [Example 79]
Condition not met
